Test: Stability of peptides in human plasma
Type: in vitro ADME
Conditions: human, plasma
Readout: half-life (t1/2) in human plasma

CCCCC(C)(NC(=O)[C@H](CC(C)C)NC(=O)[C@H](CCC(N)=O)NC(=O)[C@@H](NC(=O)[C@H](CCC(=O)O)NC(=O)C(C)(C)NC(=O)[C@@H](NC(=O)C1(NC(=O)[C@@H](N)C(C)C)CCCC1)C(C)C)[C@@H](C)CC)C(=O)N[C@@H](Cc1c[nH]cn1)C(=O)N[C@@H](CCC(N)=O)C(=O)N[C@@H](CCCCNC(=N)N)C(=O)N[C@@H](C)C(=O)N[C@@H](CCCCNC(=N)N)C(=O)NC(Cc1ccc(-c2ccc(OC)cc2CC)cc1)C(=O)NC(C)(CCCc1ccccc1)C(N)=O (single isomer, unassigned) [Seq. ID. 925]: (9) h

---

Test: Stability of peptides in human liver microsomes
Assay type: in vitro ADME
Conditions: human, microsomes, 24 h, 2 μM, pH 7.8
Where a SMILES comes first, the peptide text is derived from it. [ ]: non-standard residue; d: D form. ξ: configuration not given here. Arg(NO2) = N=C(NCCC[C@H](N)C(=O)O)N[N+](=O)[O-]; ξαMePhe(2,6-F2) = CC(N)(Cc1c(F)cccc1F)C(=O)O; ξαMePhe(2-F) = CC(N)(Cc1ccccc1F)C(=O)O; hArg = N=C(N)NCCCC[C@H](N)C(=O)O; hCit = NC(=O)NCCCC[C@H](N)C(=O)O; ξαMeF = CC(N)(Cc1ccccc1)C(=O)O; Nle = CCCC[C@H](N)C(=O)O; ξαMeP = CC1(C(=O)O)CCCN1; Ac5c = NC1(C(=O)O)CCCC1; Aib = CC(C)(N)C(=O)O
Exercise: state measured % degradation of peptides in 24 h when incubated with liver microsomes for each of the molecules provided.
One number for each entry, in %.

Below: 3 molecules and their reported % degradation of peptides in 24 h when incubated with liver microsomes.
CCCC[C@H](NC(=O)C(C)(Cc1ccccc1F)NC(=O)[C@H](CCC(N)=O)NC(=O)[C@@H](NC(=O)[C@H](CCC(=O)O)NC(=O)C(C)(C)NC(=O)[C@@H](NC(=O)C1(N)CCCC1)C(C)C)[C@@H](C)CC)C(=O)N[C@@H](Cc1c[nH]cn1)C(=O)N[C@@H](CCC(N)=O)C(=O)N[C@@H](CCCCNC(N)=O)C(=O)NC(C)(C)C(=O)N[C@@H](CCCNC(=N)N[N+](=O)[O-])C(=O)NC(C)(Cc1ccccc1F)C(N)=O (stereo partly shown) [Seq. ID. 460] (H-[Ac5c]V[Aib]EIQ[ξαMePhe(2-F)][Nle]HQ[hCit][Aib][Arg(NO2)][ξαMePhe(2-F)]-NH2): 78
CCCC[C@H](NC(=O)C(C)(Cc1ccccc1F)NC(=O)[C@H](CCC(N)=O)NC(=O)[C@@H](NC(=O)[C@H](CCC(=O)O)NC(=O)C(C)(C)NC(=O)[C@@H](NC(=O)C(C)(C)N)C(C)C)[C@@H](C)CC)C(=O)N[C@@H](Cc1c[nH]cn1)C(=O)N[C@@H](CCC(N)=O)C(=O)N[C@@H](CCCCNC(=N)N)C(=O)N1CCCC1(C)C(=O)N[C@@H](CCCCN)C(=O)NC(C)(Cc1ccccc1)C(N)=O (stereo partly shown) [Seq. ID. 25] (H-[Aib]V[Aib]EIQ[ξαMePhe(2-F)][Nle]HQ[hArg][ξαMeP]K[ξαMeF]-NH2): 83
CCCC[C@H](NC(=O)C(C)(Cc1ccccc1F)NC(=O)[C@H](CCC(N)=O)NC(=O)[C@@H](NC(=O)[C@H](CCC(=O)O)NC(=O)C(C)(C)NC(=O)[C@@H](NC(=O)C(C)(C)N)C(C)C)[C@@H](C)CC)C(=O)N[C@@H](Cc1c[nH]cn1)C(=O)N[C@@H](CCC(N)=O)C(=O)NC(C)(C)C(=O)NC(C)(C)C(=O)NC(C)(Cc1c(F)cccc1F)C(=O)NC(C)(Cc1ccccc1F)C(N)=O (stereo partly shown) [Seq. ID. 570] (H-[Aib]V[Aib]EIQ[ξαMePhe(2-F)][Nle]HQ[Aib][Aib][ξαMePhe(2,6-F2)][ξαMePhe(2-F)]-NH2): 100

Below: the item to evaluate.
Fill blank: measured % degradation of peptides in 24 h when incubated with liver microsomes of the molecule CCCC[C@H](NC(=O)C(C)(Cc1c(F)cccc1F)NC(=O)[C@H](CCC(N)=O)NC(=O)[C@@H](NC(=O)[C@H](CCC(=O)O)NC(=O)C1(NC(=O)[C@@H](NC(=O)C2(N)CCCC2)C(C)C)CCCC1)[C@@H](C)CC)C(=O)N[C@@H](Cc1c[nH]cn1)C(=O)N[C@@H](CCC(N)=O)C(=O)N[C@@H](CCCCNC(=N)N)C(=O)N[C@@H](C)C(=O)N[C@@H](CCCCN)C(=O)NC(C)(Cc1c(F)cccc1F)C(N)=O (stereo partly shown) [Seq. ID. 115] (H-[Ac5c]V[Ac5c]EIQ[ξαMePhe(2,6-F2)][Nle]HQ[hArg]AK[ξαMePhe(2,6-F2)]-NH2) is ____.
79
